System: P. falciparum 3D7 gametocytes
Experiment: alamarBlue gametocyte viability assay, strain 3D7
Format: cell-based, Plasmodium falciparum
Conditions: Malaria Box; DMSO set at 0%, 100 nM epoxomicin set at -100%
Threshold -80%: Max Resp strictly smaller gives 1 (yes), otherwise 0 (no).

CCN1CCN(c2cc(C)c3cc(NC(=O)c4ccc(OC)c(OC)c4)ccc3n2)CC1 [MMV019074]	0 (no)
Cc1ccc(S(=O)(=O)c2c(COC(=O)c3cccc(C)c3)c(-c3ccccc3)nn2C)cc1 [MMV665936]	0 (no)
COc1ccccc1CNC(=O)CCn1c(=O)[nH]c2ccsc2c1=O [MMV019066]	0 (no)
O=C(NC1CCN(Cc2ccccc2)CC1)c1cc(C(=O)NC2CCN(Cc3ccccc3)CC2)cc(C(=O)NC2CCN(Cc3ccccc3)CC2)c1 [MMV019881]	1 (yes)

Is -80% strictly greater than the compound's reported Max Resp? compound: O=C(Nc1ccc(N2CCN(Cc3ccccc3)CC2)cc1)c1cccs1.O=C(O)C(F)(F)F [MMV019670]
0 (no)

Is -80% strictly greater than the compound's reported Max Resp? compound: OC(CNC1CCCCC1)Cn1c2ccc(I)cc2c2cc(I)ccc21 (centres unmarked) [MMV665882]
1 (yes)

Is -80% strictly greater than the compound's reported Max Resp? compound: CCn1c(SCC(=O)Nc2cc(C(F)(F)F)ccc2Cl)nc2ccccc2c1=O [MMV666103]
0 (no)

----------
System: P. falciparum HB3 gametocytes
Assay: alamarBlue gametocyte viability assay, strain HB3
Assay type: cell-based, Plasmodium falciparum
Settings: Plasmodium falciparum, HB3, strain profiling; 11 concentrations, 1:3 dilution, three times; read-out: HB3-gametocytes IC50
Counter-ions that a name gives are not always drawn.
property: log10 of IC50 (log10 of the value in nM)
Friendly reminder: values = log10 of IC50, unit nM.

Example entries begin here.
CN(C)C(=S)SSC(=S)N(C)C	2.17
CO[C@H]1/C=C\C=C(/C)C(=O)NC2=CC(=O)C(NCCN(C)C)=C(C[C@@H](C)C[C@H](OC)[C@H](O)[C@@H](C)/C=C(\C)[C@@H]1OC(N)=O)C2=O	2.37
CC(C)C[C@H](NC(=O)[C@H](Cc1ccccc1)NC(=O)c1cnccn1)B(O)O	1.87
Nc1ccc(-c2ccc3ncc4ccc(=O)n(-c5cccc(C(F)(F)F)c5)c4c3c2)cn1	1.18
COc1ccc(C[C@H](N)C(=O)N[C@H]2[C@@H](O)[C@H](n3cnc4c(N(C)C)ncnc43)O[C@@H]2CO)cc1	3.17
CN(C)C/C=C/C(=O)Nc1cc2c(Nc3ccc(F)c(Cl)c3)ncnc2cc1O[C@H]1CCOC1	3.62
CCN(CCO)CCCOc1ccc2c(Nc3cc(CC(=O)Nc4cccc(F)c4)n[nH]3)ncnc2c1	3.17
OC(c1cc(C(F)(F)F)nc2c(C(F)(F)F)cccc12)C1CCCCN1 (stereo not shown) [Mefloquine hydrochloride]	1.77

Which log10 of IC50 is listed for CCCCN(CCCC)CC(O)c1cc(Cl)cc2c1-c1ccc(Cl)cc1/C2=C/c1ccc(Cl)cc1 (stereo not shown) ?
1.52

Which log10 of IC50 is listed for "C[C@H]1[C@@H](O)O[C@@H]2O[C@@]3(C)CC[C@H]4[C@H](C)CC[C@@H]1[C@@]24OO3" ?
1.77

Which log10 of IC50 is listed for "COCCn1c2c([n+](Cc3cnccn3)c1C)C(=O)c1ccccc1C2=O" ?
2.48
